Target: T1, HLA-A*02:01 (human)
T1 construct: MHC class I monomer of the UV-ligand exchange assay; also called peptide-receptive MHC molecules; MHC class I
Test: UV peptide-exchange ELISA
Form field: peptide exchange yield (one value per entry).

Check out these entries, answers already filled in.
{"binder": "KMDWIFHTI", "peptide exchange yield": "50 to 75%"}
{"binder": "AMEALVVEV", "peptide exchange yield": "50 to 75%"}
{"binder": "YLLLQTYVL", "peptide exchange yield": "10 to 20%"}

Now consider the entry below.
The value of peptide exchange yield measured for the binder SLSFLVPSL turned out to be 50 to 75%
